# assay-comment: Retention time of the compound by HPLC analysis
# Assay type: physicochemical
Give Retention_time for every item shown.
A number alone suffices; assume min.

(Q) Given the compound "O=C(Nc1cccc(C(F)(F)F)c1)c1cc(-c2ccc(F)cc2F)ccc1O" , what is its reported Retention_time?
(A) 7.27

(Q) What about "O=C(Nc1ccc(F)cc1F)c1cc(-c2ccc(F)cc2F)ccc1O" ?
(A) 6.45

(Q) What about "O=C(Nc1cc(F)ccc1F)c1cc(-c2ccc(F)cc2F)ccc1O" ?
(A) 7.8

(Q) What about "O=C(Nc1ccccc1C(F)(F)F)c1cc(-c2ccc(F)cc2F)ccc1O" ?
(A) 5.44

(Q) What about "O=C(Nc1ccc(F)c(F)c1)c1cc(-c2ccc(F)cc2F)ccc1O" ?
(A) 7.72

(Q) What about "O=C(Nc1ccc(Cl)cc1F)c1cc(-c2ccc(F)cc2F)ccc1O" ?
(A) 9.07

(Q) What about "COc1ccc(NC(=O)c2cc(-c3ccc(F)cc3F)ccc2O)cc1OC" ?
(A) 7.61

(Q) What about "COc1cccc(NC(=O)c2cc(-c3ccc(F)cc3F)ccc2O)c1" ?
(A) 5.89

(Q) What about "O=C(Nc1ccc(C(F)(F)F)cc1)c1cc(-c2ccc(F)cc2F)ccc1O" ?
(A) 7.87

(Q) What about "C#Cc1cccc(NC(=O)c2cc(-c3ccc(F)cc3F)ccc2O)c1" ?
(A) 6.37

(Q) What about "N#Cc1cccc(NC(=O)c2cc(-c3ccc(F)cc3F)ccc2O)c1" ?
(A) 6.92

(Q) What about "N#Cc1ccc(NC(=O)c2cc(-c3ccc(F)cc3F)ccc2O)cc1" ?
(A) 6.84

---

# assay-comment: Cytotoxicity against mouse RAW264.7 cells assessed as cell viability at 5 uM after 24 hrs by MTT assay
# Assay type: cell-based
# protocol-conditions: read-out: Activity
Give viability at 24 h, 5 µM for every item shown.

(Q) Given the compound "O=C(Nc1ccc(Cl)cc1F)c1cc(-c2ccc(F)cc2F)ccc1O" , what is its reported viability at 24 h, 5 µM?
(A) 77.5%

(Q) What about "O=C(Nc1ccccc1C(F)(F)F)c1cc(-c2ccc(F)cc2F)ccc1O" ?
(A) 99.4%

(Q) What about "O=C(Nc1ccc(F)cc1F)c1cc(-c2ccc(F)cc2F)ccc1O" ?
(A) 110%

(Q) What about "COc1ccc(NC(=O)c2cc(-c3ccc(F)cc3F)ccc2O)cc1OC" ?
(A) 98.9%

(Q) What about "COc1cccc(NC(=O)c2cc(-c3ccc(F)cc3F)ccc2O)c1" ?
(A) 105%

(Q) What about "O=C(Nc1ccc(F)c(F)c1)c1cc(-c2ccc(F)cc2F)ccc1O" ?
(A) 78.4%

(Q) What about "N#Cc1ccc(NC(=O)c2cc(-c3ccc(F)cc3F)ccc2O)cc1" ?
(A) 96.2%

(Q) What about "O=C(Nc1cccc(C(F)(F)F)c1)c1cc(-c2ccc(F)cc2F)ccc1O" ?
(A) 96.7%

(Q) What about "N#Cc1cccc(NC(=O)c2cc(-c3ccc(F)cc3F)ccc2O)c1" ?
(A) 72.2%

(Q) What about "C#Cc1cccc(NC(=O)c2cc(-c3ccc(F)cc3F)ccc2O)c1" ?
(A) 63%

(Q) What about "O=C(Nc1cc(F)ccc1F)c1cc(-c2ccc(F)cc2F)ccc1O" ?
(A) 102%

(Q) What about "O=C(Nc1ccc(C(F)(F)F)cc1)c1cc(-c2ccc(F)cc2F)ccc1O" ?
(A) 85.2%

The measurements presented in this section are drawn from ChEMBL document CHEMBL3421559.
